Quick reference for IC50 among some compounds
Target: CDK7/Cyclin H/MAT1 complex (Homo sapiens)
Sequence (P50613 whole entry): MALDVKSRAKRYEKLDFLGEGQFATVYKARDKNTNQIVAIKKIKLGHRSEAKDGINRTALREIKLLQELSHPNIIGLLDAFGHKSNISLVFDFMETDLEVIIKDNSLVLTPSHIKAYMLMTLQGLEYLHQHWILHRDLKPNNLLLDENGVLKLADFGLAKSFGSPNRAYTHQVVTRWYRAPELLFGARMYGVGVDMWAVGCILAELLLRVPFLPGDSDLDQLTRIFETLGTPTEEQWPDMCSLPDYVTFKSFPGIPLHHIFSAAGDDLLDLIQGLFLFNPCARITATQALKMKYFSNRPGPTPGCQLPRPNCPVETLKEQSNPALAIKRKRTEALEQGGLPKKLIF
Sequence (P51946 whole entry partner): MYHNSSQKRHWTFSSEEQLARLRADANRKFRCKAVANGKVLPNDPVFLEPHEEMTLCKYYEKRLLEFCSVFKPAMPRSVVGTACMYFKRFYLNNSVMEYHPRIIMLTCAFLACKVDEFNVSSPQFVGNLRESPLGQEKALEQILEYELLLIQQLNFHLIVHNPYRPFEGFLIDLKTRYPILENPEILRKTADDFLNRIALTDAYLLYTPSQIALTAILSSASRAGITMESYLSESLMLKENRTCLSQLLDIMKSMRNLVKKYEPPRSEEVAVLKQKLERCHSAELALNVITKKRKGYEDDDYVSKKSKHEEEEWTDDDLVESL
Sequence (P51948 whole entry partner): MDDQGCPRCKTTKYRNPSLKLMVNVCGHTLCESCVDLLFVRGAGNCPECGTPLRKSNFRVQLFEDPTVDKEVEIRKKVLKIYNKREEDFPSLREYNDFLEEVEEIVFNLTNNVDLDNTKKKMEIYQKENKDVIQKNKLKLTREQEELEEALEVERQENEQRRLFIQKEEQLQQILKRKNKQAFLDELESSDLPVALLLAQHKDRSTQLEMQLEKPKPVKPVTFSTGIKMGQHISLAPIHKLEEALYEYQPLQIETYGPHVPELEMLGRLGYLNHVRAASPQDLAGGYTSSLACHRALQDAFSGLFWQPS
Test: CDK7 kinase inhibition assay (Caliper/LabChip EZ Reader)
Conditions: CDK7/Cyclin H/MAT1 6 nM, ATP 2 mM, 35 min at 27° C.
measuredProperty: IC50

>>> reportedmeasurement("FC(F)n1cc(-c2ccc3c(-c4nc(NC5CCCNC5)ncc4C(F)(F)F)c[nH]c3c2)cn1 (centres unmarked)")
"20 to 200 nM"
>>> reportedmeasurement("CCN1CCCC(Nc2ncc(C(F)(F)F)c(-c3c[nH]c4cc(S(C)(=O)=O)ccc34)n2)C1 (centres unmarked)")
"< 20 nM"
>>> reportedmeasurement("CC1CCC(Nc2ncc(Cl)c(-c3c[nH]c4ccccc34)n2)CN1 (centres unmarked)")
"20 to 200 nM"
>>> reportedmeasurement("CCCCCc1ccc2c(-c3nc(N[C@@H]4CCCNC4)ncc3C(F)(F)F)c[nH]c2c1")
"20 to 200 nM"
>>> reportedmeasurement("FC(F)(F)c1cnc(N[C@H]2CCCNC2)nc1-c1c[nH]c2cc(-c3ccncc3)ccc12")
"< 20 nM"
>>> reportedmeasurement("Brc1cnc(N[C@@H]2CCCNC2)nc1-c1c[nH]c2ccccc12")
"< 20 nM"
>>> reportedmeasurement("Cc1c(-c2ccc3c(-c4nc(NC5CCCNC5)ncc4C(F)(F)F)c[nH]c3c2)c[nH]c(=O)c1C#N (centres unmarked)")
"< 20 nM"
>>> reportedmeasurement("CC(C)(O)CCc1ccc2c(-c3nc(NC4CCCNC4)ncc3C(F)(F)F)c[nH]c2c1 (centres unmarked)")
"20 to 200 nM"
>>> reportedmeasurement("O=C(C1CCC(Nc2ncc(C(F)(F)F)c(-c3c[nH]c4ccccc34)n2)CN1)N1CCCC1 (centres unmarked)")
"< 20 nM"
>>> reportedmeasurement("Cc1cnc(NC2CCCNC2)nc1-c1c[nH]c2ccccc12 (centres unmarked)")
"20 to 200 nM"
>>> reportedmeasurement("FC(F)(F)Sc1cnc(NC2CCCNC2)nc1-c1c[nH]c2ccccc12 (centres unmarked)")
"< 20 nM"
>>> reportedmeasurement("Cc1cccc2c(-c3nc(NC4CCCNC4)ncc3Cl)c[nH]c12 (centres unmarked)")
"< 20 nM"
>>> reportedmeasurement("Cn1cc(-c2cccc3c(-c4nc(NC5CCCNC5)ncc4C(F)(F)F)c[nH]c23)cn1 (centres unmarked)")
"20 to 200 nM"
>>> reportedmeasurement("COCn1cc(-c2nc(NC3CCCNC3)ncc2C(F)(F)F)c2ccc(C#N)nc21 (centres unmarked)")
"200 to 5000 nM"
>>> reportedmeasurement("N#Cc1cc(-c2ccc3c(-c4nc(NC5CCCNC5)ncc4C(F)(F)F)c[nH]c3c2)ccc1O (centres unmarked)")
"20 to 200 nM"
>>> reportedmeasurement("N#Cc1ccc2c(-c3nc(NC4CNCCC4O)ncc3C(F)(F)F)c[nH]c2c1 (centres unmarked)")
"20 to 200 nM"
>>> reportedmeasurement("Clc1cnc(NC2(c3ccccc3)CCCNC2)nc1-c1c[nH]c2ccccc12 (centres unmarked)")
"≥ 5000 nM"

* * *

Target: CDK2/Cyclin E1 complex (Homo sapiens, UniProt P24941)
Assay: CDK2 kinase inhibition assay (Caliper/LabChip EZ Reader)
Assay type: biochemical
Settings: CDK2/Cyclin E1 0.5 nM, ATP 2 mM, 35 min at 27° C.
pIC50: −log10 of the molar value.
# key: entry, value: pIC50
measuredProperty: pIC50

>>> reportedmeasurement("CCC1CCC(Nc2ncc(C(F)(F)F)c(-c3c[nH]c4ccccc34)n2)CN1 (stereo not drawn) [Compound 211]")
"5.30 to 6.70"
>>> reportedmeasurement("FC(F)(F)c1cnc(N[C@H]2CCCNC2)nc1-c1c[nH]c2cc(-c3ccncc3)ccc12")
"5.30 to 6.70"
>>> reportedmeasurement("CC(C)C1CCC(Nc2ncc(C(F)(F)F)c(-c3c[nH]c4ccccc34)n2)CN1 (stereo not drawn)")
"≤ 5.30"
>>> reportedmeasurement("CC1CCNCC1Nc1ncc(C(F)(F)F)c(-c2c[nH]c3ccccc23)n1 (stereo not drawn) [Compound 373]")
"≤ 5.30"
>>> reportedmeasurement("FC(F)(F)c1cnc(NC2CCCNC2)nc1-c1c[nH]c2ccccc12 (stereo not drawn)")
"5.30 to 6.70"
>>> reportedmeasurement("Cc1cccc2c(-c3nc(NC4CCCNC4)ncc3CC(C)C)c[nH]c12 (stereo not drawn)")
"≤ 5.30"
>>> reportedmeasurement("N#Cc1ccc2c(-c3nc(N[C@@H]4CCCNC4)ncc3C(F)(F)F)c[nH]c2c1-c1ccnnc1")
"5.30 to 6.70"
>>> reportedmeasurement("NC(=O)c1cccc(-c2ccc3c(-c4nc(NC5CCCNC5)ncc4C(F)(F)F)c[nH]c3c2)c1 (stereo not drawn)")
"5.30 to 6.70"
>>> reportedmeasurement("Fc1cccc2c(-c3nc(N[C@H]4CCCNC4)ncc3C(F)(F)F)n[nH]c12")
"5.30 to 6.70"
>>> reportedmeasurement("OC1CCC(c2cccc3c(-c4nc(NC5CCCNC5)ncc4C(F)(F)F)c[nH]c23)CC1 (stereo not drawn) [Compound 185]")
"6.70 to 7.70"
>>> reportedmeasurement("FC(F)(F)c1cnc(NC2CCCNC2)nc1-c1c[nH]c2cc(-c3ncc[nH]3)ccc12 (stereo not drawn)")
"5.30 to 6.70"
>>> reportedmeasurement("O=C(c1ccc2c(-c3nc(N[C@H]4CCCNC4)ncc3C(F)(F)F)c[nH]c2c1)N1CC[C@@H](O)C1 [Compound 250]")
"5.30 to 6.70"

* * *

Target: CDK12 (aa686-1082)/Cyclin K complex (Homo sapiens, UniProt Q9NYV4)
Construct: CDK12 (aa686-1082)/Cyclin K complex
Sequence (Q9NYV4 686-1082): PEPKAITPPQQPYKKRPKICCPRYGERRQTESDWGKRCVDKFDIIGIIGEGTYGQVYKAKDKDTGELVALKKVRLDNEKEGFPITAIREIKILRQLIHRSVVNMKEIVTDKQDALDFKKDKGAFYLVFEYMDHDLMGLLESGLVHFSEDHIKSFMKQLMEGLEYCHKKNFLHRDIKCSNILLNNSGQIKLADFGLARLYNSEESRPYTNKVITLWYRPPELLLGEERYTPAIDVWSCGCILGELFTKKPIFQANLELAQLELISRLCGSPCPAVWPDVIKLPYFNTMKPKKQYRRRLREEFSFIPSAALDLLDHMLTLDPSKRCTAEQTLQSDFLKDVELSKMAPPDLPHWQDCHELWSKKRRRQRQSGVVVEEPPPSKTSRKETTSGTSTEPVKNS
Sequence (O75909 whole entry partner, the tested form may be a part): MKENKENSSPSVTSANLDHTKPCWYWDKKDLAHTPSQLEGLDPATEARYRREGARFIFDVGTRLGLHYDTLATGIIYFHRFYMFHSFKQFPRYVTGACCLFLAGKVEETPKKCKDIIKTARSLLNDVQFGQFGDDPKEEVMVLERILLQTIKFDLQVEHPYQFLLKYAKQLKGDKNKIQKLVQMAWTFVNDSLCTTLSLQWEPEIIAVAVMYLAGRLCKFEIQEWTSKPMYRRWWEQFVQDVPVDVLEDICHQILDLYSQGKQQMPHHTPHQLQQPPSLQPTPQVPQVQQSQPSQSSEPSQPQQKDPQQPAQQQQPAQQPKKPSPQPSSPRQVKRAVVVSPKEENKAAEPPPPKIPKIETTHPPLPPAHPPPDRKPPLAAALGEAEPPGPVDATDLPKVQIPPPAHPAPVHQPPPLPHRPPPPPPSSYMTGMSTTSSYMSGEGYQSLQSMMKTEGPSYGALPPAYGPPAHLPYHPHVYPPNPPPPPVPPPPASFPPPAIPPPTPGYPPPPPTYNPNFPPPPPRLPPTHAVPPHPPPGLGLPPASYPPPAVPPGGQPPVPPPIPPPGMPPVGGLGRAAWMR
Assay: CDK12 kinase inhibition assay (Caliper/LabChip EZ Reader)
Conditions: CDK12 (aa686-1082)/Cyclin K 50 nM, ATP 2 mM, 3 hr at 27° C.
The entries below are paired with their reported IC50.
measuredProperty: IC50

>>> reportedmeasurement("FC(F)(F)c1cnc(NC2CCCNC2)nc1-c1c[nH]c2cc(N3CCCC3)ccc12 (stereo not shown)")
"0.2 to 5 µM"
>>> reportedmeasurement("OCCc1cccc(-c2ccc3c(-c4nc(NC5CCCNC5)ncc4C(F)(F)F)c[nH]c3c2)c1 (stereo not shown)")
"0.2 to 5 µM"
>>> reportedmeasurement("FC(F)(F)c1cnc(N[C@H]2CCCNC2)nc1-c1c[nH]c2ccc(Cl)cc12")
"0.2 to 5 µM"
>>> reportedmeasurement("Fc1cc2[nH]cc(-c3nc(NC4CCCNC4)ncc3Cl)c2cc1F (stereo not shown)")
"0.02 to 0.2 µM"
>>> reportedmeasurement("CC1CCNCC1Nc1ncc(Cl)c(-c2c[nH]c3ccccc23)n1 (stereo not shown) [Compound 125]")
"≥ 5 µM"
>>> reportedmeasurement("CCC1CCC(Nc2ncc(C(F)(F)F)c(-c3c[nH]c4ccccc34)n2)CN1 (stereo not shown) [Compound 211]")
"0.2 to 5 µM"
>>> reportedmeasurement("CN(C)S(=O)(=O)c1ccc2c(-c3nc(NC4CCCNC4)ncc3C(F)(F)F)c[nH]c2c1 (stereo not shown)")
"0.2 to 5 µM"
>>> reportedmeasurement("CC(C)C1CCC(Nc2ncc(C(F)(F)F)c(-c3c[nH]c4ccccc34)n2)CN1 (stereo not shown)")
"0.2 to 5 µM"
>>> reportedmeasurement("N#Cc1ccc2c(-c3nc(NC4CCCNC4)ncc3C(F)(F)F)c[nH]c2n1 (stereo not shown)")
"0.2 to 5 µM"
>>> reportedmeasurement("COCCn1cc(-c2nc(NC3CCCNC3)ncc2Cl)c2ccccc21 (stereo not shown)")
"≥ 5 µM"
>>> reportedmeasurement("CC(O)c1cnc(NC2CCCNC2)nc1-c1c[nH]c2ccccc12 (stereo not shown) [Compound 239]")
"≥ 5 µM"
>>> reportedmeasurement("Cc1noc(C)c1-c1ccc2c(-c3nc(N[C@H]4CCCNC4)ncc3C(F)(F)F)c[nH]c2c1")
"0.2 to 5 µM"
>>> reportedmeasurement("Cc1n[nH]cc1-c1ccc2[nH]cc(-c3nc(NC4CCCNC4)ncc3C(F)(F)F)c2c1 (stereo not shown)")
"0.2 to 5 µM"
>>> reportedmeasurement("CC1(C)CNC[C@@H](Nc2ncc(C(F)(F)F)c(-c3c[nH]c4ccccc34)n2)C1")
"0.02 to 0.2 µM"
>>> reportedmeasurement("CCP(=O)(CC)c1ccc2c(-c3nc(NC4CCCNC4)ncc3C(F)(F)F)c[nH]c2c1 (stereo not shown)")
"≥ 5 µM"
>>> reportedmeasurement("Clc1cnc(NC2CCCNC2)nc1-c1c[nH]c2ccc(N3CCOCC3)cc12 (stereo not shown)")
"≥ 5 µM"
>>> reportedmeasurement("CC(C)(O)CCc1ccc2c(-c3nc(NC4CCCNC4)ncc3C(F)(F)F)c[nH]c2c1 (stereo not shown)")
"0.2 to 5 µM"
>>> reportedmeasurement("Nc1nc2c(-c3ccc4c(-c5nc(NC6CCCNC6)ncc5C(F)(F)F)c[nH]c4c3)cccc2s1 (stereo not shown)")
"0.2 to 5 µM"
>>> reportedmeasurement("COc1cnc(N[C@H]2CCCNC2)nc1-c1c[nH]c2ccccc12")
"≥ 5 µM"
